Data origin, for the record: patent US9492508B2

test: in vivo; settings: Crl:CD(SD), rat, iv, 24.3 nmol/kg
Ends that are not written are not given here.
metric_name: Vd (L/kg)
Give a bare numeral; the unit L/kg is implied.

Problem: Read the entry AVAEIQLMHQRAKWIQDARRRAFLHKLIAEIHTAEI-OH [SP-PTH-AAK] and write its reported Vd.
Result: 0.126

###

assay: in vivo; details: Crl:CD(SD), rat, iv, 24.3 nmol/kg
Ends that are not written are not given here.
metric_name: MRT (min)
Write down the numeric answer in min and omit the unit.

Problem: Could you please provide reported MRT for AVAEIQLMHQRAKWIQDARRRAFLHKLIAEIHTAEI-OH [SP-PTH-AAK] ? Thanks!
Result: 5.83

###

assay: in vivo; conditions: Crl:CD(SD), rat, iv, 24.3 nmol/kg
Ends that are not written are not given here.
metric_name: half-life (min)
Dear colleague, please return just the value in min, with no unit written.

Problem: Kindly indicate its recorded half-life. Item: AVAEIQLMHQRAKWIQDARRRAFLHKLIAEIHTAEI-OH [SP-PTH-AAK]
Result: 7.27
